FYI, the data here is from patent US8614223B2.

Below, each entry is listed alongside its reported pIC50.
Biological target: UniProtKB O15379
Sequence (O15379 whole entry): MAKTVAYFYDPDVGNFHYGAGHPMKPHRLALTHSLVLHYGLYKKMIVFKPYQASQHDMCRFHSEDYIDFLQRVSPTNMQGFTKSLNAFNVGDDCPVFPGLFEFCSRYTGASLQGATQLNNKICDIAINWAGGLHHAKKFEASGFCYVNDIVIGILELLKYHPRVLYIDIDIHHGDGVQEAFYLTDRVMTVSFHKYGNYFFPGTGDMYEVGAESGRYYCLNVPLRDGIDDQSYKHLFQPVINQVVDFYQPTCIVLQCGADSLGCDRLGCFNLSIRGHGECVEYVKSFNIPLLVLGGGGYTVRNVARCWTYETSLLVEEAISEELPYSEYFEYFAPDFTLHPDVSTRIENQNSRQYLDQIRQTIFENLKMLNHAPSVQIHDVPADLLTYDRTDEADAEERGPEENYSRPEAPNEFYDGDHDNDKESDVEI
Sequence (Q9Y618 395-489 partner): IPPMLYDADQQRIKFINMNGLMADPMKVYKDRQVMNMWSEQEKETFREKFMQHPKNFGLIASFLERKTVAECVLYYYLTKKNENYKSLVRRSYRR
Assay: HDAC enzyme assay, HDAC3
Details: read-out: HDAC3 IC50
Please note pIC50 is a logarithmic value: minus log10 of concentration in mol/L. Answer with that number alone.

Reference set, count: 2
compound | pIC50
O=C(NO)c1cnc(NC2(c3cccc(F)c3)CC2)nc1 [Compound 87] | 6.63
COc1ccc(C2(Nc3ncc(C(=O)NO)cn3)CC2)cc1OC [Compound 138] | 6.95

Entry under review: O=C(NO)c1cnc(Nc2cccc(-c3ccccc3)c2)nc1 [Compound 28] . Reported pIC50?
6.74

Entry under review: O=C(NO)c1cnc(NCCc2ccc(Cl)cc2)nc1 [Compound 44] . Reported pIC50?
6.51

Entry under review: COc1ccc(Nc2ncc(C(=O)NO)cn2)cc1 [Compound 5] . Reported pIC50?
6.38
